- SYSTEM: human FGFR2b (Homo sapiens, UniProt P21802)
- Sequence (P21802 22-822 isoform P21802-3 limits assumed): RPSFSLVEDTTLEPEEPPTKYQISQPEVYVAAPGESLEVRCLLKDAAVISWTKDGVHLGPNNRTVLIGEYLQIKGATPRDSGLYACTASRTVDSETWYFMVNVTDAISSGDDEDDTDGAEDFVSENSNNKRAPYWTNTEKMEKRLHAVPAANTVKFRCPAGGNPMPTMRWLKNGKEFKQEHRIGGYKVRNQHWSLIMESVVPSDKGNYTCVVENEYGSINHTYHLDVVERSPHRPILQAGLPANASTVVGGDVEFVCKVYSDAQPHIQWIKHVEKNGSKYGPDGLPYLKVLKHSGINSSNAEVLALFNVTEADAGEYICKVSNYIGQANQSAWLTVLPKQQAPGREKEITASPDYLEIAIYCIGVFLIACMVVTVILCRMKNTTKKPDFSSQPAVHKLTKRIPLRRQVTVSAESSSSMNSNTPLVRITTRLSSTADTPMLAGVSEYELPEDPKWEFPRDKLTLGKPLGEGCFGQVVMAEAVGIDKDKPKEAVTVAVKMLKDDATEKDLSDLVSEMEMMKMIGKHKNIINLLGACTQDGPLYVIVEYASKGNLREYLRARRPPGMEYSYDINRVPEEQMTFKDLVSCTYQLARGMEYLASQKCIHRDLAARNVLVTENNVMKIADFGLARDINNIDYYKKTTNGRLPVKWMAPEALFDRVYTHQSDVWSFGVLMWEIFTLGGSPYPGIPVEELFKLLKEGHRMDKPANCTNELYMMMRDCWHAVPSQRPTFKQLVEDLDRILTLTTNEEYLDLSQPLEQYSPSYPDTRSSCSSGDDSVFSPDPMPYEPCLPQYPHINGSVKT
- MEASUREMENT_DESCRIPTION: FACS binding to native FGFR2b on Expi293 cells, human FGFR2b (Example 10)
- EXPERIMENTAL_CONTEXT: Expi293 cells overexpressing human FGFR2b
MEASURED_METRIC: EC50 (nM)
Give the quantity in nM, number only.

### Prompt Read the entry BGAm1371: parental murine anti-FGFR2b antibody (parental mouse clone); VH SEQ ID NO: 32, VL SEQ ID NO: 34 (antibody, V domains shown, Synthetic: VH AA; Synthetic: VL AA) VH: QVQLKQSGAELVKPGASVKLSCTASGFNIKDTYIHWVKQRPEQGLEWIGRIDPANGNTMFASEFQGKATITAYTSSNTAYMQLSSLTSGDTAVYYCARSKIHYDYDEGFAYWGQGTLVTVSS VL: NIVLTQSPPSLAVSLGQRATVSCRASESVDDYGYSFLHWYQQKPGQPPKLLIYRASNLESGIPARFSGSGSRTDFTLTINPVETDDVATYYCQQSNQNPRTFGGGTKLEIK and write its reported EC50.
### Response 1.5
